Values of IC50 reported for Butyrylcholinesterase (Equus caballus, UniProt Q9N1N9) appear below.

Reference set (2 entries):
# Compound, Experimental value
records = [
    ("COCCN1CCN(c2nccc(NCc3ccccc3)n2)CC1", "> 100 µM"),
    ("CC(=O)N1CCN(c2nccc(NCCc3ccccc3)n2)CC1", "> 100 µM"),
]

Now, please, on to the next compound.
Q) Dear colleague, I am looking for the recorded IC50 of the following compound: `FC(F)(F)c1ccc(CN2CCN(c3nccc(NCc4ccccc4)n3)CC2)cc1`
A) > 100 µM
